targetUnderTest: T1, MDMX (synMDMX) 24-108 (Homo sapiens), O15151
T1 chain: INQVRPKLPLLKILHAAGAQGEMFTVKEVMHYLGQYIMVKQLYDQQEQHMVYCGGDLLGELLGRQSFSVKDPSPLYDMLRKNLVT
assayName: SPR
conditionParameters: modification not given
pKd: −log10 of the molar value.
property: pKd

                                    binder  number
0  CYSFDCLWKCLAMGFSSGKCINSKCKC [stoppin-1]    6.00
